System: SF-295 CNS
Assay: NCI tumour cell line growth inhibition, 48 h
Where a SMILES comes first, the peptide text is derived from it. [ ]: non-standard residue; d: D form. The star is where a group is joined. NMeV = CN[C@H](C(=O)O)C(C)C; X29 = COc1ccc(CN*)c(OC)c1; Octanoyl = CCCCCCCC(=O)*; dNMeA = CN[C@H](C)C(=O)O
ENDPOINT: TGI

Entry under test: `COc1ccc(-c2cc(Cc3cccs3)c(=O)[nH]n2)cc1` . Its TGI was > 100 µM

Entry under test: CCCCCCCC(=O)N[C@H](C(=O)N[C@H](C(=O)N(C)[C@H](C(=O)N1CCC[C@H]1C(=O)N(C)[C@H](C)C(=O)NCc1ccc(OC)cc1OC)C(C)C)C(C)C)C(C)C (Octanoyl-VV[NMeV]P[dNMeA]-X29) . Its TGI was > 88.7 µM

Entry under test: `Clc1ccc(Nc2nc3ccccc3nc2-c2cccs2)cc1Cl` . Its TGI was > 100 µM

---

Field: TGI. Provide a value for each of the compounds that follow.
System: RPMI-8226 leukemia
Test: NCI tumour cell line growth inhibition, 48 h

Entry under test: COC1/C=C/C(C)C(C(C)C(OC)C(C)CCC(=O)C(C)C(C/C=C/N(C)C=O)OC)OC(=O)C=CC2OC2(C)CC(OC)C(OC)C2=CC(=O)O[C@@H](C(C)C(OC)CC(OC)/C=C/C(C)C(O)C1)[C@H]2O (some centres undefined) . Its TGI was > 1.24 µM

Entry under test: `COc1c(F)c(F)c(/C(O)=C\c2nc3ccccc3[nH]c2=O)c(F)c1F` . Its TGI was > 10 µM

Entry under test: `CC1(O)C=CC(=O)C=C1` . Its TGI was > 100 µM

Entry under test: `COc1cc2c3c(c1)CCCN3CCC2` . Its TGI was > 10 µM

Entry under test: `COC(=O)c1onc(-c2c(OC)cc(OC)cc2OC)c1C(=O)OC` . Its TGI was > 100 µM

Entry under test: `COc1ccc(C=O)c([N+](=O)[O-])c1` . Its TGI was > 100 µM

Entry under test: `O=S(=O)(c1ccc(Cl)cc1)C(Cl)(Cl)Cl` . Its TGI was > 52.9 µM

Entry under test: CC(=O)NC(CCCNC(=O)N(CCCl)N=O)C(=O)NCc1ccccc1 (centres undefined) . Its TGI was > 100 µM

Entry under test: CCN(CC)CC1c2ccccc2C(CNc2ccccc2)N1C (centres undefined) . Its TGI was > 100 µM

Entry under test: `Oc1ccc(-c2cc(-c3cc(-c4ccc(O)cc4)no3)on2)cc1` . Its TGI was > 100 µM

Entry under test: N#CC1C(=O)NC23CCCCC2C1c1ccccc1O3 (centres undefined) . Its TGI was > 100 µM

Entry under test: `CO/C(=N\N=C\c1ccc(OC)c(OC)c1)c1ccncc1` . Its TGI was > 10 µM

Entry under test: `Cc1c(/C=N/N=C/c2[nH]c(C(=O)OC(C)(C)C)c(C)c2C)[nH]c(C(=O)OC(C)(C)C)c1C` . Its TGI was > 100 µM

Entry under test: CC#CCC1CCC(OCC)=CC1=O (centres undefined) . Its TGI was > 100 µM

---

Field: GI50. Provide a value for each of the molecules that follow.
Test system: MDA-MB-231 breast
Assay: NCI tumour cell line growth inhibition, 48 h

Entry under test: `COc1cc2c(cc1OCCCn1c(-c3ccccn3)nc3ccccc31)N=C[C@@H]1CCCN1C2=O` . Its GI50 was 2.5 µM

Entry under test: NC(=O)c1csc(C2OC(CO)C(O)C2O)n1 (stereo not drawn) . Its GI50 was > 73.8 µM

Entry under test: `O=C(/C=C/c1cc2ccccc2[nH]c1=O)/C=C/c1cc2ccccc2[nH]c1=O` . Its GI50 was 15.4 µM
